Data provenance is the supplement of paper PMC7877785.

# Method summary: self-splicing fitness, log relative to wild type (ln ratio); higher = more splicing; Tetrahymena group I intron in knt gene, E. coli kanamycin selection, DiMSum; sequences stand for … in CUCUCU…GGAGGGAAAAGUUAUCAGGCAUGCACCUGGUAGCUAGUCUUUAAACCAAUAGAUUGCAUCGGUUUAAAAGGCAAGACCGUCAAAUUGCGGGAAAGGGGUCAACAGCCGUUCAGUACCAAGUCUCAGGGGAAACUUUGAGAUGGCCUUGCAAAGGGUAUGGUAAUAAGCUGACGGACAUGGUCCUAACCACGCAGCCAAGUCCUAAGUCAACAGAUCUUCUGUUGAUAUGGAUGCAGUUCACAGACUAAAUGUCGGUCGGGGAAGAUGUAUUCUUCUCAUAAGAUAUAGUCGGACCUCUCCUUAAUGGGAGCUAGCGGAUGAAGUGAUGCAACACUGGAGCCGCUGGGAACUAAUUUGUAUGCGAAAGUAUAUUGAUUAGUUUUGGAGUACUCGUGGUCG;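 also: selection with 25 µg/mL kanamycin versus none on LB agar overnight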
# Settings: 37 °C
Property measured: self-splicing fitness (ln)

> print(dat)
          chain.sequence           property.measured  result
 1  CGAGAGCAAUAUUACGUAUC  self-splicing fitness (ln)   -1.87
 2  CGGAAGCAAUAUUACGCUAA  self-splicing fitness (ln)   -3.01
 3  ACCUAGCAAUAUUACGUGCA  self-splicing fitness (ln)   -1.25
 4  CCGGAGCAAUAUUACGACAA  self-splicing fitness (ln)   -2.16
 5  CAAUAGCAAUAUUACGCUCC  self-splicing fitness (ln)  -0.581
 6  AAAAAGCAAUAUUACGAUGA  self-splicing fitness (ln)  -0.139
 7  AGUCAGCAAUAUUACGUUUU  self-splicing fitness (ln)  -0.278
 8  GGACAGCAAUAUUACGGCAC  self-splicing fitness (ln)   -0.25
 9  AGUAAGCAAUAUUACGAUGU  self-splicing fitness (ln)   -1.17
10  AGAUAGCAAUAUUACGUGCU  self-splicing fitness (ln)  -0.664
11  CCCGAGCAAUAUUACGUAAG  self-splicing fitness (ln)   -2.77
12  UGUGAGCAAUAUUACGGAUA  self-splicing fitness (ln)   -1.64
13  CUCCAGCAAUAUUACGUUGC  self-splicing fitness (ln)   -1.77
14  UGUAAGCAAUAUUACGCGCA  self-splicing fitness (ln)  -0.167
15  AUGAAGCAAUAUUACGUGCG  self-splicing fitness (ln)   0.532
16  UGUCAGCAAUAUUACGGUUU  self-splicing fitness (ln)  -0.547

----------
# Method summary: self-splicing fitness, log relative to wild type (ln ratio); higher = more splicing; Tetrahymena group I intron in knt gene, E. coli kanamycin selection, DiMSum; sequences stand for … in CUCUCU…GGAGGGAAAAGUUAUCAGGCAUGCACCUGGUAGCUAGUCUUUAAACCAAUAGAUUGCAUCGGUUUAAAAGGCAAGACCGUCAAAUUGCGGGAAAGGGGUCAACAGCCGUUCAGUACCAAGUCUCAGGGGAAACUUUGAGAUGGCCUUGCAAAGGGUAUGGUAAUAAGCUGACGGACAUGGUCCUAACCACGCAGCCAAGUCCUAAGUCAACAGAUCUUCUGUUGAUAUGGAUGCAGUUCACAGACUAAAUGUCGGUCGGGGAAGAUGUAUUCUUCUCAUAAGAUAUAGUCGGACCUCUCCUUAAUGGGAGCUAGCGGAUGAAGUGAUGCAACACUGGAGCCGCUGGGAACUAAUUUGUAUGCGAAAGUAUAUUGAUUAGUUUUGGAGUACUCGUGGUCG
# Settings: 37 °C
Using self-splicing fitness (ln) as the sorting value, the categories are lower bin (below -2), middle bin (-2 to below -1), upper bin (-1 or more)

> print(dat)
          chain.sequence       class
 1  UCCGAGCAAUAUUACGGCCU   lower bin
 2  AGCCAGCAAUAUUACGCUAG   lower bin
 3  ACCUAGCAAUAUUACGAGUC   lower bin
 4  UUCGAGCAAUAUUACGGUAU   lower bin
 5  CUUAAGCAAUAUUACGUAAU  middle bin
 6  GCUUAGCAAUAUUACGCCUU   upper bin
 7  UGUCAGCAAUAUUACGGGCG  middle bin
 8  GGCCAGCAAUAUUACGAUAA  middle bin
 9  GUACAGCAAUAUUACGUAAC  middle bin
10  CUUGAGCAAUAUUACGUCUC   lower bin
11  GGCAAGCAAUAUUACGGUUC   upper bin
12  CCGGAGCAAUAUUACGUGCC   lower bin
13  AUAAAGCAAUAUUACGUGCU   upper bin
14  ACAUAGCAAUAUUACGCAUA  middle bin
15  GUCCAGCAAUAUUACGGCAG   lower bin
16  AUAGAGCAAUAUUACGGGCA  middle bin
17  CUCUAGCAAUAUUACGGAGG  middle bin
18  GGCUAGCAAUAUUACGCAUA   upper bin
19  AUCCAGCAAUAUUACGAUCA  middle bin
20  UCCCAGCAAUAUUACGUGAG   upper bin
21  AGGUAGCAAUAUUACGUCGC  middle bin
22  GCAAAGCAAUAUUACGUUCU   upper bin
23  AAAAAGCAAUAUUACGAGCG   upper bin
24  AAUAAGCAAUAUUACGCCGC  middle bin
25  GGGCAGCAAUAUUACGUCGC  middle bin
26  UAGGAGCAAUAUUACGUUUA   upper bin
27  UCAUAGCAAUAUUACGCUCA   upper bin
28  AAUCAGCAAUAUUACGGCAC   upper bin
29  AAGAAGCAAUAUUACGUCAA   upper bin
30  AGAUAGCAAUAUUACGUGGG   lower bin
31  UUGCAGCAAUAUUACGAGUA  middle bin
32  GCCUAGCAAUAUUACGGCGA  middle bin
33  UACAAGCAAUAUUACGAGGA  middle bin
34  UCUGAGCAAUAUUACGGCGA   upper bin
35  UGGUAGCAAUAUUACGGAUA   lower bin
36  UGAGAGCAAUAUUACGUGGG  middle bin
37  AAGAAGCAAUAUUACGUAGG  middle bin
38  AACUAGCAAUAUUACGGGUG   upper bin
39  GGACAGCAAUAUUACGGGGU   lower bin
40  GGCGAGCAAUAUUACGGAGA  middle bin
41  AGGUAGCAAUAUUACGAUUU   upper bin
42  UUCAAGCAAUAUUACGCACG   upper bin
43  GCUCAGCAAUAUUACGUGGA  middle bin
44  AAACAGCAAUAUUACGAUUG  middle bin
45  GAAGAGCAAUAUUACGCCCU  middle bin
46  AGCAAGCAAUAUUACGUUGU   lower bin
47  ACAGAGCAAUAUUACGACGG  middle bin
48  AUAUAGCAAUAUUACGAGAC  middle bin
49  CCAAAGCAAUAUUACGAUCU   lower bin
50  AGUGAGCAAUAUUACGCCUA   upper bin
51  AUCAAGCAAUAUUACGAGUU  middle bin
52  UCUUAGCAAUAUUACGGCUU   lower bin
53  CUGAAGCAAUAUUACGGUGG   upper bin
54  GAUAAGCAAUAUUACGCUGC   lower bin
55  UCGUAGCAAUAUUACGGGAG   lower bin
56  GGUAAGCAAUAUUACGCCAA   lower bin
57  CACUAGCAAUAUUACGUGCG   upper bin
58  CGUCAGCAAUAUUACGUGGU   lower bin
59  AUCCAGCAAUAUUACGGGCG   upper bin
60  GCGUAGCAAUAUUACGUGUA   lower bin
61  CUUCAGCAAUAUUACGUAUG   upper bin
62  AGGUAGCAAUAUUACGUGUG  middle bin
63  GACCAGCAAUAUUACGAGGG   lower bin
64  UCUCAGCAAUAUUACGCGGU   lower bin
65  UUUAAGCAAUAUUACGAACA   upper bin
